Attribution: ChEMBL document CHEMBL5143539

- Tested on: HEK293
- test_protocol: Cytotoxicity against HEK293 cells
- Type: toxicity, cell-based, Homo sapiens
The molecules listed here are annotated with their IC50.

The following molecules have reported results that may help.
1) CC(=O)O[C@H]1[C@H](C)[C@H](O)[C@H](C)[C@@H](O)[C@@H](C(C)OC(=O)C(C)(C)CC(=O)O)/C=C/C=C(/C)C(=O)Nc2c3oc4cc(NCCCN5Cc6cc(-c7ccc8c(=O)c(C(=O)O)cn(C9CC9)c8c7OC(F)F)ccc6[C@H]5C)cc(O)c4nc-3c3c4c(c(C)c(O)c3c2=O)O[C@](C)(O/C=C/[C@H](O[C@H]2C[C@@H]3OCO[C@@H]3[C@@H](C)O2)[C@H]1C)C4=O (stereo partly drawn) = > 64 µg/mL
2) CC(=O)O[C@H]1[C@H](C)[C@H](O)[C@H](C)[C@@H](O)[C@@H](C(C)OC(=O)C(C)(C)CC(=O)O)/C=C/C=C(/C)C(=O)Nc2c3oc4cc(N5CCC(CCCC(=O)N6Cc7cc(-c8ccc9c(=O)c(C(=O)O)cn(C%10CC%10)c9c8OC(F)F)ccc7[C@H]6C)CC5)cc(O)c4nc-3c3c4c(c(C)c(O)c3c2=O)O[C@](C)(O/C=C/[C@H](O[C@H]2C[C@@H]3OCO[C@@H]3[C@@H](C)O2)[C@H]1C)C4=O (stereo partly drawn) = > 64 µg/mL

Attention now turns to another entry.
Ask: Would you please give the reported IC50 of CC(=O)O[C@H]1[C@H](C)[C@H](O)[C@H](C)[C@@H](O)[C@@H](C(C)OC(=O)C(C)(C)CC(=O)O)/C=C/C=C(/C)C(=O)Nc2c3oc4cc(NCCCCCCCCC(=O)N5Cc6cc(-c7ccc8c(=O)c(C(=O)O)cn(C9CC9)c8c7OC(F)F)ccc6[C@H]5C)cc(O)c4nc-3c3c4c(c(C)c(O)c3c2=O)O[C@](C)(O/C=C/[C@H](O[C@H]2C[C@@H]3OCO[C@@H]3[C@@H](C)O2)[C@H]1C)C4=O (stereo partly drawn) with HEK293?
Reply: > 64 µg/mL

----------
- Tested on: HEK293
- test_protocol: Cytotoxicity against HEK293 cells
- Type: toxicity, cell-based, Homo sapiens
quantity_kind: IC50

Ask: Annotate the compound CC(=O)O[C@H]1[C@H](C)[C@H](O)[C@H](C)[C@@H](O)[C@@H](C(C)OC(=O)C(C)(C)CC(=O)O)/C=C/C=C(/C)C(=O)Nc2c3oc4cc(NC5(c6c(F)cc7c(=O)c(C(=O)O)cn8c7c6OC[C@@H]8C)CC5)cc(O)c4nc-3c3c4c(c(C)c(O)c3c2=O)O[C@](C)(O/C=C/[C@H](O[C@H]2C[C@@H]3OCO[C@@H]3[C@@H](C)O2)[C@H]1C)C4=O (some centres not stated) with its measured IC50.
Reply: > 64 µg/mL

Ask: Annotate the compound CC(=O)O[C@H]1[C@H](C)[C@H](O)[C@H](C)[C@@H](O)[C@@H](C(C)OC(=O)C(C)(C)CC(=O)O)/C=C/C=C(/C)C(=O)Nc2c3oc4cc(N5CCN(c6cc7c(cc6F)c(=O)c(C(=O)O)cn7C6CC6)CC5)cc(O)c4nc-3c3c4c(c(C)c(O)c3c2=O)O[C@](C)(O/C=C/[C@H](O[C@H]2C[C@@H]3OCO[C@@H]3[C@@H](C)O2)[C@H]1C)C4=O (some centres not stated) with its measured IC50.
Reply: > 64 µg/mL

----------
- Tested on: HEK293
- test_protocol: Cytotoxicity against HEK293 cells
- Assay type: toxicity, cell-based, Homo sapiens
quantity_kind: IC50

1) CO/N=C1\CN(c2nc3c(cc2F)c(=O)c(C(=O)O)cn3C2CC2)CC1CNC(=O)CC(C)(C)C(=O)OC(C)[C@H]1/C=C/C=C(/C)C(=O)NC2=CC(=O)c3c(c(O)c(C)c4c3C(=O)[C@@](C)(O/C=C/[C@H](O[C@H]3C[C@@H]5OCO[C@@H]5[C@@H](C)O3)[C@@H](C)[C@@H](OC(C)=O)[C@H](C)[C@H](O)[C@H](C)[C@H]1O)O4)C2=O (stereo partly drawn) = > 64 µg/mL
2) CC(=O)O[C@H]1[C@H](C)[C@H](O)[C@H](C)[C@@H](O)[C@@H](C(C)OC(=O)C(C)(C)CC(=O)O)/C=C/C=C(/C)C(=O)Nc2c3oc4cc(N5Cc6cc(-c7ccc8c(=O)c(C(=O)O)cn(C9CC9)c8c7OC(F)F)ccc6[C@H]5C)cc(O)c4nc-3c3c4c(c(C)c(O)c3c2=O)O[C@](C)(O/C=C/[C@H](O[C@H]2C[C@@H]3OCO[C@@H]3[C@@H](C)O2)[C@H]1C)C4=O (stereo partly drawn) = > 64 µg/mL

Attention now turns to another entry.
Ask: Would you please give the reported IC50 of COc1c(N2CCCC(N(C)C(=O)CC(C)(C)C(=O)OC(C)[C@H]3/C=C/C=C(/C)C(=O)NC4=CC(=O)c5c(c(O)c(C)c6c5C(=O)[C@@](C)(O/C=C/[C@H](O[C@H]5C[C@@H]7OCO[C@@H]7[C@@H](C)O5)[C@@H](C)[C@@H](OC(C)=O)[C@H](C)[C@H](O)[C@H](C)[C@H]3O)O6)C4=O)C2)c(F)cc2c(=O)c(C(=O)O)cn(C3CC3)c12 (stereo partly drawn) with HEK293?
Reply: 23 µg/mL

----------
- System: HEK293
- test_protocol: Cytotoxicity against HEK293 cells
- Format: toxicity, cell-based, Homo sapiens
quantity_kind: IC50 (µg/mL)
Expressed in µg/mL, but write only the number.

1) CC(=O)O[C@H]1[C@H](C)[C@H](O)[C@H](C)[C@@H](O)[C@@H](C(C)OC(=O)C(C)(C)CC(=O)N2CCN(c3cc4c(cc3F)c(=O)c(C(=O)O)cn4C3CC3)CC2)/C=C/C=C(/C)C(=O)NC2=CC(=O)c3c(c(O)c(C)c4c3C(=O)[C@@](C)(O/C=C/[C@H](O[C@H]3C[C@@H]5OCO[C@@H]5[C@@H](C)O3)[C@H]1C)O4)C2=O (some centres undefined) = 23

Ask: Annotate the molecule CC(=O)O[C@H]1[C@H](C)[C@H](O)[C@H](C)[C@@H](O)[C@@H](C(C)OC(=O)C(C)(C)CC(=O)N2Cc3cc(-c4ccc5c(=O)c(C(=O)O)cn(C6CC6)c5c4OC(F)F)ccc3[C@H]2C)/C=C/C=C(/C)C(=O)NC2=CC(=O)c3c(c(O)c(C)c4c3C(=O)[C@@](C)(O/C=C/[C@H](O[C@H]3C[C@@H]5OCO[C@@H]5[C@@H](C)O3)[C@H]1C)O4)C2=O (some centres undefined) with its measured IC50.
Reply: 19

----------
- System: HEK293
- test_protocol: Cytotoxicity against HEK293 cells
- Assay type: toxicity, cell-based, Homo sapiens
quantity_kind: IC50 (µg/mL)
Expressed in µg/mL, but write only the number.

Ask: Annotate the molecule COc1c(N2CCN(C(=O)CC(C)(C)C(=O)OC(C)[C@H]3/C=C/C=C(/C)C(=O)NC4=CC(=O)c5c(c(O)c(C)c6c5C(=O)[C@@](C)(O/C=C/[C@H](O[C@H]5C[C@@H]7OCO[C@@H]7[C@@H](C)O5)[C@@H](C)[C@@H](OC(C)=O)[C@H](C)[C@H](O)[C@H](C)[C@H]3O)O6)C4=O)C(C)C2)c(F)cc2c(=O)c(C(=O)O)cn(C3CC3)c12 (stereo partly specified) with its measured IC50.
Reply: 21

----------
- Tested on: Staphylococcus aureus
- test_protocol: Antibacterial activity against wild type Staphylococcus aureus assessed as inhibition of bacterial growth
- Assay type: functional
quantity_kind: MIC (µg/mL)
Expressed in µg/mL, but write only the number.

Ask: Annotate the compound COc1c(N2CCCC(N(C)C(=O)CC(C)(C)C(=O)OC(C)[C@H]3/C=C/C=C(/C)C(=O)NC4=CC(=O)c5c(c(O)c(C)c6c5C(=O)[C@@](C)(O/C=C/[C@H](O[C@H]5C[C@@H]7OCO[C@@H]7[C@@H](C)O5)[C@@H](C)[C@@H](OC(C)=O)[C@H](C)[C@H](O)[C@H](C)[C@H]3O)O6)C4=O)C2)c(F)cc2c(=O)c(C(=O)O)cn(C3CC3)c12 (stereo partly specified) with its measured MIC.
Reply: 32

----------
- Test system: HEK293
- test_protocol: Cytotoxicity against HEK293 cells
- Assay type: toxicity, cell-based, Homo sapiens
quantity_kind: IC50 (µg/mL)
Expressed in µg/mL, but write only the number.

The following compounds have reported results that may help.
1. CC(=O)O[C@H]1[C@H](C)[C@H](O)[C@H](C)[C@@H](O)[C@@H](C(C)OC(=O)C(C)(C)CC(=O)O)/C=C/C=C(/C)C(=O)Nc2c3oc4cc(NCCCN5CCN(c6cc7c(cc6F)c(=O)c(C(=O)O)cn7C6CC6)CC5)cc(O)c4nc-3c3c4c(c(C)c(O)c3c2=O)O[C@](C)(O/C=C/[C@H](O[C@H]2C[C@@H]3OCO[C@@H]3[C@@H](C)O2)[C@H]1C)C4=O (stereo not given in full) = 44
2. COc1c(N2C[C@@H]3CCCN(C(=O)CC(C)(C)C(=O)OC(C)[C@H]4/C=C/C=C(/C)C(=O)NC5=CC(=O)c6c(c(O)c(C)c7c6C(=O)[C@@](C)(O/C=C/[C@H](O[C@H]6C[C@@H]8OCO[C@@H]8[C@@H](C)O6)[C@@H](C)[C@@H](OC(C)=O)[C@H](C)[C@H](O)[C@H](C)[C@H]4O)O7)C5=O)[C@@H]3C2)c(F)cc2c(=O)c(C(=O)O)cn(C3CC3)c12 (stereo not given in full) = 28
3. COc1c(N2CCCC(N(C)c3cc(O)c4nc5c6c7c8c(C)c(O)c6c(=O)c(c-5oc4c3)NC(=O)/C(C)=C\C=C\[C@H](C(C)OC(=O)C(C)(C)CC(=O)O)[C@H](O)[C@@H](C)[C@@H](O)[C@@H](C)[C@H](OC(C)=O)[C@H](C)[C@@H](O[C@H]3C[C@@H]4OCO[C@@H]4[C@@H](C)O3)/C=C/O[C@@](C)(O8)C7=O)C2)c(F)cc2c(=O)c(C(=O)O)cn(C3CC3)c12 (stereo not given in full) = 36

Attention now turns to another entry.
Ask: Annotate the compound COc1c(N2C[C@@H]3CCCN(CCCNc4cc(O)c5nc6c7c8c9c(C)c(O)c7c(=O)c(c-6oc5c4)NC(=O)/C(C)=C\C=C\[C@H](C(C)OC(=O)C(C)(C)CC(=O)O)[C@H](O)[C@@H](C)[C@@H](O)[C@@H](C)[C@H](OC(C)=O)[C@H](C)[C@@H](O[C@H]4C[C@@H]5OCO[C@@H]5[C@@H](C)O4)/C=C/O[C@@](C)(O9)C8=O)[C@@H]3C2)c(F)cc2c(=O)c(C(=O)O)cn(C3CC3)c12 (stereo not given in full) with its measured IC50.
Reply: 38
